system.under.test: T1, human MSLN-R3-his protein (human, UniProt Q13421 487-598)
T1 construct: Region 3 of human MSLN, His-tagged; also called human MSLN-R3 protein; hMSLN-R3-his; not shown: His tag
run.description: ELISA, coated MSLN-R3
observed.property: OD450 at 0.0001 nM (OD450)
Kindly answer with a numeric value in OD450, unit omitted.

// OD450 at 0.0001 nM lookup, binder = S009-F1.25.10 (antibody, human IgG1, kappa, V domains shown, Human-murine chimeric antibody, human IgG1/kappa constant regions) VH: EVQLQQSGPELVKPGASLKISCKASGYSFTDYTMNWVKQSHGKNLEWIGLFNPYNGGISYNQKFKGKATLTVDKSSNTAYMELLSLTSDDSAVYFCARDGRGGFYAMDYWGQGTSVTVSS VL: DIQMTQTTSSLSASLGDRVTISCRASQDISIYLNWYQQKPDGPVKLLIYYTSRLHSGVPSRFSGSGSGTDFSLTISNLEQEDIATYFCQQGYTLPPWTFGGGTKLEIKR , result: 0.05

// OD450 at 0.0001 nM lookup, binder = S009-F1.62.9 (antibody, human IgG1, kappa, V domains shown, Human-murine chimeric antibody, human IgG1/kappa constant regions) VH: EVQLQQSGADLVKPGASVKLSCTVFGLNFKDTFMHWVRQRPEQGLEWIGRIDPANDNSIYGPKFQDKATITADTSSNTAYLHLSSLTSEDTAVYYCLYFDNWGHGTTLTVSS VL: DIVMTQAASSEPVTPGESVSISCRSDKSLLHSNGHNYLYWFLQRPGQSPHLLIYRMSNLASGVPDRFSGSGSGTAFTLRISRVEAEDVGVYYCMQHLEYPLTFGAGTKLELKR , result: 0.04

// OD450 at 0.0001 nM lookup, binder = S009-F1.2.12 (antibody, human IgG1, kappa, V domains shown) VH: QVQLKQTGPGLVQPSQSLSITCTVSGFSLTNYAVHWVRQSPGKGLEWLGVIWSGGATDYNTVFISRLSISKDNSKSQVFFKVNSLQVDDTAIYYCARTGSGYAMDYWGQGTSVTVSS VL: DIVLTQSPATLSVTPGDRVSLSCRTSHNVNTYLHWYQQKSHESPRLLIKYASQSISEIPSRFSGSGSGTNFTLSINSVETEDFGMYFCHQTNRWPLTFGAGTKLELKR , result: 0.05

// OD450 at 0.0001 nM lookup, binder = S009-F1.35.24 (antibody, human IgG1, kappa, V domains shown, Human-murine chimeric antibody, human IgG1/kappa constant regions) VH: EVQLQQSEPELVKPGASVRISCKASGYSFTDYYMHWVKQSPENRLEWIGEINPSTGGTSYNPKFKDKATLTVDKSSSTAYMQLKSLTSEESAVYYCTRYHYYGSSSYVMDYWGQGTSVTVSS VL: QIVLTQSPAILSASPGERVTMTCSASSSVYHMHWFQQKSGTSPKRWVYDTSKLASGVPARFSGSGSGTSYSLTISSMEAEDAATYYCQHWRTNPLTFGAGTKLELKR , result: 0.05
